// log10 EC50 hC3 cleavage lookup, one value per entry
# Measurement target: plasma purified human complement protein C3 (human) (UniProt P01024)
# Sequence (P01024 23-667, chain 1 of 2): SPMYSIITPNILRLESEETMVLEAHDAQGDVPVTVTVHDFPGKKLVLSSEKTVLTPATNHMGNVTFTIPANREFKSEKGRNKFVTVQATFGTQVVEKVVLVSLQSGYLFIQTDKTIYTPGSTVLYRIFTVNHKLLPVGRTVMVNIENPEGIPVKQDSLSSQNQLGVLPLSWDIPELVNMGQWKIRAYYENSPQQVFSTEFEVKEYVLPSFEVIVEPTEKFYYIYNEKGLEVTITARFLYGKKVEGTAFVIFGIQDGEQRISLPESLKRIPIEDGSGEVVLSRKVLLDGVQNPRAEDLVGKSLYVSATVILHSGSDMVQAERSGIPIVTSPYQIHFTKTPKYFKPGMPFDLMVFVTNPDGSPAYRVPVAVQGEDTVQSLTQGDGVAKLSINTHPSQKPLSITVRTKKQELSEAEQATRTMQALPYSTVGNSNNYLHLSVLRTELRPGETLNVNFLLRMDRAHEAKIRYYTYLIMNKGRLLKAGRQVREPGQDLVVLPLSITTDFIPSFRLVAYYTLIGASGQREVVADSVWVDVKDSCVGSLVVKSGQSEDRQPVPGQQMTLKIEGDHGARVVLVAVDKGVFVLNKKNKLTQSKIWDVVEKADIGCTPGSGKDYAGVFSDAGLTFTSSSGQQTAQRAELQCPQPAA
# Sequence (P01024 672-1663, chain 2 of 2): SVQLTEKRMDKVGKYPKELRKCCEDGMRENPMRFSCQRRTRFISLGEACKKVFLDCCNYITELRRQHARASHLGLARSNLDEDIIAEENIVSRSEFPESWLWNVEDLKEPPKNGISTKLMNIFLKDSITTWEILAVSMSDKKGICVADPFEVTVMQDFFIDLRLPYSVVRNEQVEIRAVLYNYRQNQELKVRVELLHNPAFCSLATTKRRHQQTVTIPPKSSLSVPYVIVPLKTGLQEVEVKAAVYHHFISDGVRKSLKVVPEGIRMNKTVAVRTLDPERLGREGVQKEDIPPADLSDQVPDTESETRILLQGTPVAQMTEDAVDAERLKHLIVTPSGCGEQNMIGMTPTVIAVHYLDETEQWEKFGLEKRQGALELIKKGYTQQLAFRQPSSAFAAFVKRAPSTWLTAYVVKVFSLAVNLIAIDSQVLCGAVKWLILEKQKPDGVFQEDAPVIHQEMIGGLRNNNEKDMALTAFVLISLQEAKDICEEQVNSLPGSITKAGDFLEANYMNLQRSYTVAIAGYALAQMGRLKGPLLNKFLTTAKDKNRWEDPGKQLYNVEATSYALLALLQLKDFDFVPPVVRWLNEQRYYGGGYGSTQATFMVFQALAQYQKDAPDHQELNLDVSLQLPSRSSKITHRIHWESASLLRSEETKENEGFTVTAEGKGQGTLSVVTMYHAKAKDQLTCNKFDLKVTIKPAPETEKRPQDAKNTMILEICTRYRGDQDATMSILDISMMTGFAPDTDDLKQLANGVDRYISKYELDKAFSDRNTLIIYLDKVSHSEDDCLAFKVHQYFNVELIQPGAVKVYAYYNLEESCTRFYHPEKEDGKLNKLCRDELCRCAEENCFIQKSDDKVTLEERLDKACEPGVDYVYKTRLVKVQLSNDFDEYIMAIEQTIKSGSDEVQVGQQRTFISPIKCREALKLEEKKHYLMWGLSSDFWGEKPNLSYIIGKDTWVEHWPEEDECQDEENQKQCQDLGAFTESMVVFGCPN
# Assay summary: cell-based or functional assay
Values are log10 of EC50 hC3 cleavage in nM.

{"Binder": "MTSP-1 protease domain F97S/ins97aN/T98G/F99M/C122S/Q175T/Q192T/D217S (enzyme) VVGGTDADEGEWPWQVSLHALGQGHICGASLISPNWLVSAAHCYIDDRGFRYSDPTQWTAFLGLHDQSQRSAPGVQERRLKRIISHPFFNDSNGMDYDIALLELEKPAEYSSMVRPISLPDASHVFPAGKAIWVTGWGHTQYGGTGALILQKGEIRVINQTTCENLLPQTITPRMMCVGFLSGGVDSCTGDSGGPLSSVEADGRIFQAGVVSWGSGCAQRNKPGVYTRLPLFRDWIKENTGV", "Quantity name": "log10 EC50 hC3 cleavage", "Recorded measurement": 3.38}
{"Binder": "MTSP-1 protease domain I41D/F99L/C122S/G151N/Q175S/Q192T/D217A (enzyme) VVGGTDADEGEWPWQVSLHALGQGHDCGASLISPNWLVSAAHCYIDDRGFRYSDPTQWTAFLGLHDQSQRSAPGVQERRLKRIISHPFFNDFTLDYDIALLELEKPAEYSSMVRPISLPDASHVFPAGKAIWVTGWGHTQYGGTNALILQKGEIRVINQTTCENLLPQSITPRMMCVGFLSGGVDSCTGDSGGPLSSVEADGRIFQAGVVSWGAGCAQRNKPGVYTRLPLFRDWIKENTGV", "Quantity name": "log10 EC50 hC3 cleavage", "Recorded measurement": 1.48}
{"Binder": "MTSP-1 protease domain I41D/F99L/C122S/G151Q/Q175R/Q192V/D217L (enzyme) VVGGTDADEGEWPWQVSLHALGQGHDCGASLISPNWLVSAAHCYIDDRGFRYSDPTQWTAFLGLHDQSQRSAPGVQERRLKRIISHPFFNDFTLDYDIALLELEKPAEYSSMVRPISLPDASHVFPAGKAIWVTGWGHTQYGGTQALILQKGEIRVINQTTCENLLPQRITPRMMCVGFLSGGVDSCVGDSGGPLSSVEADGRIFQAGVVSWGLGCAQRNKPGVYTRLPLFRDWIKENTGV", "Quantity name": "log10 EC50 hC3 cleavage", "Recorded measurement": 1.50}

Inquiry: Name the recorded log10 EC50 hC3 cleavage for MTSP-1 protease domain I41G/F97S/F99L/C122S/G151N/Q192T/D217T (enzyme) VVGGTDADEGEWPWQVSLHALGQGHGCGASLISPNWLVSAAHCYIDDRGFRYSDPTQWTAFLGLHDQSQRSAPGVQERRLKRIISHPFFNDSTLDYDIALLELEKPAEYSSMVRPISLPDASHVFPAGKAIWVTGWGHTQYGGTNALILQKGEIRVINQTTCENLLPQQITPRMMCVGFLSGGVDSCTGDSGGPLSSVEADGRIFQAGVVSWGTGCAQRNKPGVYTRLPLFRDWIKENTGV .
Reply text: 2.02

Inquiry: Name the recorded log10 EC50 hC3 cleavage for MTSP-1 protease domain Q38H/I41A/D60bV/F60eR/Y60gW/D96W/F97D/ins97aD/T98G/F99L/C122S/G151N/Q175L/Q192G (enzyme) VVGGTDADEGEWPWQVSLHALGHGHACGASLISPNWLVSAAHCYIDVRGRRWSDPTQWTAFLGLHDQSQRSAPGVQERRLKRIISHPFFNWDDGLDYDIALLELEKPAEYSSMVRPISLPDASHVFPAGKAIWVTGWGHTQYGGTNALILQKGEIRVINQTTCENLLPQLITPRMMCVGFLSGGVDSCGGDSGGPLSSVEADGRIFQAGVVSWGDGCAQRNKPGVYTRLPLFRDWIKENTGV .
Reply text: 0.72
